Sourced from PubChem BioAssay

- EXPERIMENT DESCRIPTION: antimalarial activity against Dd2 strain (AID 2302);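 note: 0% = DMSO untreated growth and 100% = chloroquine plus artemisinin killed control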
- STUDY CONDITIONS: P. falciparum Dd2 in RBCs, LDH growth readout, 72 h; at 2 µM; hits give high values
Tick YES if growth inhibition is 70% or greater. Tick NO if growth inhibition is less than 70%.

Check out these entries, answers already filled in.
• COc1c(C2=CCN(CCCCNC(=O)c3ccc(-c4ccc(C#N)cc4)cc3)CC2)c(C)cc2c1C(C)(C)CCC2(C)C = YES
• CCOC(=O)c1ccc(NC(=O)N[C@@H](Cc2ccc(O)cc2)C(=O)NC2CCN(Cc3ccc4c(c3)OCO4)CC2)cc1 = NO
• O=C(/C=C/c1ccc(Cl)c(Cl)c1)NCCCCCN1CCC(CCNC(=O)C2(c3ccc(Cl)cc3)CC2)CC1 = NO
• Cc1cc(N2CCOCC2)nc2ccc(NC(=O)c3ccc(Cl)c([N+](=O)[O-])c3)cc12 = NO
• CCCCCCN1CCC(NCc2cccc(C#N)c2)CC1 = NO

Q. API: above_or_equal(metric=growth inhibition, cutoff=70%) for item `CC(C)(C)[C@@H](Nc1ccc(C#N)c2ccccc12)C(=O)NC1(Cc2ccc(O)cc2)CCCC1`
A. YES

Q. API: above_or_equal(metric=growth inhibition, cutoff=70%) for item `Cc1c(NCCCNCc2cc(Cl)cc(Cl)c2Cl)[nH]c2ccccc2c1=O`
A. YES

Q. API: above_or_equal(metric=growth inhibition, cutoff=70%) for item `Cc1sc(N2CCN(C)CC2)nc1C(=O)Nc1ccc(F)cc1C(F)(F)F`
A. NO

###

- TESTED SYSTEM: L-lactate dehydrogenase (Plasmodium falciparum (isolate CDC / Honduras))
- EXPERIMENT DESCRIPTION: PfLDH activity inhibition – cell lysate, 3D7 strain, counter-screen for P. falciparum growth inhibition project (AID 2304);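 note: 0% = vehicle and 100% = reference inhibitor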
- STUDY CONDITIONS: P. falciparum 3D7 crude extract, LDH APAD/NBT absorbance; at 2 µM; hits give high values
This section presents compounds with their documented inhibition values.
Dear colleague, please return just the value in %, with no unit written.

• O=C(CCc1cnc[nH]1)Nc1cccc(-c2ccc(-c3nc4ccc(F)cc4[nH]3)s2)c1 = -3

Q. Give recorded inhibition with L-lactate dehydrogenase (Plasmodium falciparum (isolate CDC / Honduras)) for the following compound: `COc1cc(Br)ccc1N1CCN(CCCCNC(=O)c2ccc(NC(=O)c3ccc(Cl)cc3)cc2)CC1`
A. 1

Q. Give recorded inhibition with L-lactate dehydrogenase (Plasmodium falciparum (isolate CDC / Honduras)) for the following compound: `C=C(C)CSc1nc2c(c(=O)n1Cc1ccco1)C1(CCCCC1)Cc1ccccc1-2`
A. -9

Q. Give recorded inhibition with L-lactate dehydrogenase (Plasmodium falciparum (isolate CDC / Honduras)) for the following compound: O=S(=O)(NC1CCN(c2ccnc3cc(Cl)ccc23)C1)c1cccs1 (stereo unspecified)
A. -4

Q. Give recorded inhibition with L-lactate dehydrogenase (Plasmodium falciparum (isolate CDC / Honduras)) for the following compound: `CNC(=O)NC1=NC(C)(C)N(OCc2ccc(Cl)c(Cl)c2)C(NC(=O)NC)=N1`
A. -2

Q. Give recorded inhibition with L-lactate dehydrogenase (Plasmodium falciparum (isolate CDC / Honduras)) for the following compound: `O=C(Cc1ccc(-c2ccccc2)cc1)N[C@H]1CCN(Cc2ccc(OCCCN3CCCCC3)cc2)C1`
A. 0

Q. Give recorded inhibition with L-lactate dehydrogenase (Plasmodium falciparum (isolate CDC / Honduras)) for the following compound: `Cc1noc(-c2ccccc2)c1NC(=O)N1CCN(CCCCCCNC(=O)/C=C/c2ccc(Cl)c(Cl)c2)CC1`
A. 2
